Biological target: T1, human CD73 (huCD73) protein, antigen of the Biacore assay (human, UniProt P21589 27-547, limits assumed)
T1 construct: also called human CD73 antigen
T1 sequence (looked up): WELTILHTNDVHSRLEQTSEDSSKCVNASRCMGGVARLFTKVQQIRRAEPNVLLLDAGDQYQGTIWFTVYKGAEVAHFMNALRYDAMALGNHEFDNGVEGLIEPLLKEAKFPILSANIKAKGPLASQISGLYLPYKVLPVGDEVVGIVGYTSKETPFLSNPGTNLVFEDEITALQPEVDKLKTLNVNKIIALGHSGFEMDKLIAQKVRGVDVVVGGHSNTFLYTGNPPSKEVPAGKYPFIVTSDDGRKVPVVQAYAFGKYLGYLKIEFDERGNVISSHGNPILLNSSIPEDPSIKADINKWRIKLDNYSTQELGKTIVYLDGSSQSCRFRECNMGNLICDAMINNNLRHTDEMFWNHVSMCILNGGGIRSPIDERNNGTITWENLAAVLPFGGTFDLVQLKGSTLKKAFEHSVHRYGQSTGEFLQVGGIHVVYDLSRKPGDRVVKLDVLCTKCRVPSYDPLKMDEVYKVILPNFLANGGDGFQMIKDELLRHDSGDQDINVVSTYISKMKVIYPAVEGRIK
Test: SPR Biacore T200; antibody captured on Protein A chip, CD73 in flow; 1:1 Langmuir
Endpoint: koff (s⁻¹)
Number in s⁻¹, nothing else.

Solved entries:
Hab108.63 (antibody, V domains shown, VL6 + VH3; full-length antibody) VH: EVTLKESGPVLVKPTETLTLTCTVSGFSLSSYGIQWVRQPPGKLLEWLGVIWSGGSADYNAAFISRLTISKDTSKSQVVLTMTNMDPVDTATYYCAGQYGSVWGQGTLVTVSS VL: DIQMTQSPSSLSASVGDRVTITCRASQDIGDRLNWLQQKPGGAIKRLIYATSSLDSGVPKRFSGSGSGTEYTLTISSLQPEDFATYYCLQYAGSWTFGGGTKVEIK    0.000117
Hab127.34 (antibody, V domains shown, VL3 + VH4; recombined with human heavy and light constant regions) VH: EVQLVQSGAEVKKPGASVKVSCKASGYTFTAYFMNWVMQAPGQSLEWIGRIYHNNGDTFYSQKFKGRATLTVDKSTSTVYMELRSLRSEDTAVYYCATSYVGDWGQGTTVTVSS VL: DIQMTQSPSSLSASVGDRVTITCRASQDIGDSLNWLQQKPGGALKRLIYATSSLDSGVPSRFSGSGSGTEYTLTISSLQPEDFATYYCLQYASFPWTFGGGTKVEIK    3.58e-05

Query binder follows.
Field koff (entry Hab108.53 (antibody, V domains shown, VL5 + VH3; full-length antibody) VH: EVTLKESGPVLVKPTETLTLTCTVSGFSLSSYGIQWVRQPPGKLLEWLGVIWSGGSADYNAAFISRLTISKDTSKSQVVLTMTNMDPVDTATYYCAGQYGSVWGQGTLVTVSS VL: DIQMTQSPSSLSASVGDRVTITCRASQDIGDRLNWLQQKPGKAIKRLIYATSSLDSGVPKRFSGSGSGTEYTLTISSLQPEDFATYYCLQYAGSWTFGGGTKVEIK ) reads 0.000156
